Assay: Determination of logP of labile esters from HPLC capacity factors
Conditions: pH 6
Below, each entry is listed alongside its reported chromatographic logP.
# respond with the number and nothing more

IN: Fill in the blank: the reported chromatographic logP of CCCCCCC(=O)OCOC(=O)C1CC(C)(C)N(O)C1(C)C (stereo not drawn) is ____.
OUT: 3.54

IN: # query: chromatographic logP of entry CCCCC(=O)OCOC(=O)C1CC(C)(C)N(O)C1(C)C (stereo not drawn)
OUT: 2.67

IN: Return reported chromatographic logP; argument: CCC(=O)OCOC(=O)C1CC(C)(C)N(O)C1(C)C (stereo not drawn)
OUT: 1.33
